The reader will find reported switch fluorescence ratio values listed item by item below.
test system: ATP; assay: switch fluorescence ratio, 500 uM ATP over buffer (Cy3 cluster intensity, sum of 5 cycles each) (fold (ratio)); higher = stronger signal-on switching upon ATP binding; sequences stand for … in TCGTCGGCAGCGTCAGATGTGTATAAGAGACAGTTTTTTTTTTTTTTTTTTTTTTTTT…TC; conditions: aptamer strand: ATP DNA aptamer (quencher-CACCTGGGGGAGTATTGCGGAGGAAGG + anchor), 100 nM annealed; ATP concentration: 500 uM;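 note: ATP exposure 15 min at 22 °C before imaging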
MEASURED_QUANTITY: switch fluorescence ratio

RESIDUE_STRING: TGGCTATTGT
TESTED_SYSTEM: ATP;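 note: ATP exposure 15 min at 22 °C before imaging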
OBSERVED_VALUE: 0.982

RESIDUE_STRING: AGCTTACTGT
TESTED_SYSTEM: ATP;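 note: ATP exposure 15 min at 22 °C before imaging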
OBSERVED_VALUE: 1.08

RESIDUE_STRING: GCGGCGTCAA
TESTED_SYSTEM: ATP;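 note: ATP exposure 15 min at 22 °C before imaging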
OBSERVED_VALUE: 1.06

RESIDUE_STRING: ATTTCGACAC
TESTED_SYSTEM: ATP;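 note: ATP exposure 15 min at 22 °C before imaging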
OBSERVED_VALUE: 1.03

RESIDUE_STRING: TCTAGGGTGC
TESTED_SYSTEM: ATP;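 note: ATP exposure 15 min at 22 °C before imaging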
OBSERVED_VALUE: 1.13

RESIDUE_STRING: GGTATTGTAG
TESTED_SYSTEM: ATP;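 note: ATP exposure 15 min at 22 °C before imaging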
OBSERVED_VALUE: 0.982

RESIDUE_STRING: ATGGCTGGGG
TESTED_SYSTEM: ATP;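 note: ATP exposure 15 min at 22 °C before imaging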
OBSERVED_VALUE: 1

RESIDUE_STRING: GACCTGTTTG
TESTED_SYSTEM: ATP;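 note: ATP exposure 15 min at 22 °C before imaging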
OBSERVED_VALUE: 0.987

RESIDUE_STRING: CCTATCACAA
TESTED_SYSTEM: ATP;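 note: ATP exposure 15 min at 22 °C before imaging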
OBSERVED_VALUE: 3.47

RESIDUE_STRING: TAGATGCACA
TESTED_SYSTEM: ATP;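 note: ATP exposure 15 min at 22 °C before imaging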
OBSERVED_VALUE: 0.952

###

The reader will find reported switch fluorescence ratio values listed item by item below.
test system: ATP; experiment: switch fluorescence ratio, 500 uM ATP over buffer (Cy3 cluster intensity, sum of 5 cycles each) (fold (ratio)); higher = stronger signal-on switching upon ATP binding; sequences stand for … in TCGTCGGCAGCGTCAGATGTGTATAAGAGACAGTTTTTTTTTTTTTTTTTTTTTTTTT…TC; settings: aptamer strand: ATP DNA aptamer (quencher-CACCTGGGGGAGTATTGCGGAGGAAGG + anchor), 100 nM annealed; ATP concentration: 500 uM;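 note: ATP exposure 15 min at 22 °C before imaging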

RESIDUE_STRING: TATAAGAGAG
switch fluorescence ratio: 1

RESIDUE_STRING: GGATTTGGAG
switch fluorescence ratio: 0.993

RESIDUE_STRING: TGGGGCCGAT
switch fluorescence ratio: 1.02

RESIDUE_STRING: GCTGTTGGTG
switch fluorescence ratio: 1

RESIDUE_STRING: AAAAACTAGT
switch fluorescence ratio: 1.04

RESIDUE_STRING: CAGAGGGCAG
switch fluorescence ratio: 1.02

RESIDUE_STRING: GATCGAGGCG
switch fluorescence ratio: 0.957

RESIDUE_STRING: GTTGGGAGGC
switch fluorescence ratio: 1.06

RESIDUE_STRING: TTCTATTTCG
switch fluorescence ratio: 1

RESIDUE_STRING: AGAATGTGG
switch fluorescence ratio: 1.21

RESIDUE_STRING: CGATTAGTCT
switch fluorescence ratio: 0.995

RESIDUE_STRING: GAAGTAGGAG
switch fluorescence ratio: 1.01

RESIDUE_STRING: GGGGAGTTAC
switch fluorescence ratio: 1.35

RESIDUE_STRING: TTCAGGTGGC
switch fluorescence ratio: 1.18

RESIDUE_STRING: AGGGCTGTTC
switch fluorescence ratio: 1.06

RESIDUE_STRING: GGTATGTTAA
switch fluorescence ratio: 0.98

RESIDUE_STRING: TTTATAGGAA
switch fluorescence ratio: 1.02

RESIDUE_STRING: AGGAGTCTAT
switch fluorescence ratio: 0.977

RESIDUE_STRING: TGAGTCCTCG
switch fluorescence ratio: 0.995

RESIDUE_STRING: GATAAAATAG
switch fluorescence ratio: 1.17

RESIDUE_STRING: TCCATGATTG
switch fluorescence ratio: 0.973

RESIDUE_STRING: TGCATTGTTT
switch fluorescence ratio: 0.999

RESIDUE_STRING: TTAATTTCAG
switch fluorescence ratio: 1.01

RESIDUE_STRING: AGGGTTTGCG
switch fluorescence ratio: 1.04

RESIDUE_STRING: GCCTGAAAAA
switch fluorescence ratio: 0.986

RESIDUE_STRING: TATTGGGAAT
switch fluorescence ratio: 0.985

RESIDUE_STRING: ATAGGTCTAT
switch fluorescence ratio: 1.04

RESIDUE_STRING: TCTGTTTACG
switch fluorescence ratio: 0.996

RESIDUE_STRING: TTACGGAACT
switch fluorescence ratio: 1.16

RESIDUE_STRING: CGAGGATTTG
switch fluorescence ratio: 0.994

RESIDUE_STRING: GCGCTGACGT
switch fluorescence ratio: 0.993

RESIDUE_STRING: AATAGCATGT
switch fluorescence ratio: 0.981

RESIDUE_STRING: CCGGCGGGAG
switch fluorescence ratio: 1.1

RESIDUE_STRING: GGACTTCTTG
switch fluorescence ratio: 0.932

RESIDUE_STRING: CGGCCGGAGT
switch fluorescence ratio: 0.983

RESIDUE_STRING: TTTAGGGGGC
switch fluorescence ratio: 1.03

RESIDUE_STRING: GGGCCTTGGG
switch fluorescence ratio: 1.03

RESIDUE_STRING: AATTTGTAAA
switch fluorescence ratio: 0.981

RESIDUE_STRING: GGCGTGTTGG
switch fluorescence ratio: 1.02

RESIDUE_STRING: TTATGCCGGT
switch fluorescence ratio: 1.02

RESIDUE_STRING: ACCATAAGGG
switch fluorescence ratio: 1

RESIDUE_STRING: CACCTGGGGG
switch fluorescence ratio: 1.13

RESIDUE_STRING: CAGTGTGTGC
switch fluorescence ratio: 1.03
